Reference for the values: patent US10106542B2

# TGT: human mGlu2 receptor (Homo sapiens)
# Construct: expressed in transfected cells; host or cells: CHO cells (membrane preparation)
# Sequence (Q14416 19-872): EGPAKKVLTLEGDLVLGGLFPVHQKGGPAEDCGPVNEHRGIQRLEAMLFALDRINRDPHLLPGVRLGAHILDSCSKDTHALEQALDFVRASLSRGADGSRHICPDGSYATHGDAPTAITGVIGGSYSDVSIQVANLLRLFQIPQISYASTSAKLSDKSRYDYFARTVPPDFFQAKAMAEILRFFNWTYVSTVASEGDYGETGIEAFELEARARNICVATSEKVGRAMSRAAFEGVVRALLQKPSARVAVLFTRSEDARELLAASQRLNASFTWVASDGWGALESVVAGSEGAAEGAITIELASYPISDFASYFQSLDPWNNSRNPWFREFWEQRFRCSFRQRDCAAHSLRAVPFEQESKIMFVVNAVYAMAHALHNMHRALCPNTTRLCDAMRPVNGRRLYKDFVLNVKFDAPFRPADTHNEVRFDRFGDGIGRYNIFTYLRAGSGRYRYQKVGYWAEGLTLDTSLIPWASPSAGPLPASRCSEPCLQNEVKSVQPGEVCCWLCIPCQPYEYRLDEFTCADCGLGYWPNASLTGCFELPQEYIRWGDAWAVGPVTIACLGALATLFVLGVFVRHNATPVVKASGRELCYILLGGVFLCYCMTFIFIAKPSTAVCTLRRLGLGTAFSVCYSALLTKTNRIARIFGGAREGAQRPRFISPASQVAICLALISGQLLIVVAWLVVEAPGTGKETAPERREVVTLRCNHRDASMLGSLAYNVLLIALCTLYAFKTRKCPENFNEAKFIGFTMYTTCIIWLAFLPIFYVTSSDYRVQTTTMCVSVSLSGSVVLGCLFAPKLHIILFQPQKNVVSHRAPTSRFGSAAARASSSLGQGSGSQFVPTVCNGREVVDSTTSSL
# EXPERIMENTAL_DETAILS: [35S]GTPγS binding assay (mGluR2 negative allosteric modulation)
# Format: biochemical
# MEASUREMENT_CONDITIONS: membranes from CHO cells transfected with human mGlu2 receptor; glutamate 60 μM; pIC50 = −log IC50 (M); read-out: GTPγS - hmGluR2 anGT pIC50 (converted)
Quick list: IC50 per entry.
Answer with a number only, understood to be in M.

Below are worked cases with known answers.
{"STRUCTURE_SMILES": "Cc1cc(-c2cnn3c2C(=O)N(c2ccc(Cl)c(OC(F)(F)F)c2)C[C@@H]3C)ccn1", "UNIT_TAG": "M", "OBSERVED_VALUE": "6.03e-09"}
{"STRUCTURE_SMILES": "Cc1cc(N2C[C@H](C)n3ncc(-c4ccnc(NC(C)C)c4)c3C2=O)ccc1C(F)(F)F", "UNIT_TAG": "M", "OBSERVED_VALUE": "2.24e-08"}
{"STRUCTURE_SMILES": "Cc1cc(-c2cnn3c2C(=O)N(c2ccc(OCC(F)(F)F)cc2)C[C@@H]3C)ccn1", "UNIT_TAG": "M", "OBSERVED_VALUE": "1.07e-07"}

// moving on: another record for IC50
Could you tell me which IC50 is on file for "CNc1cc(-c2cnn3c2C(=O)N(c2ccc(C(F)(F)F)cc2)C[C@@H]3C)cc(F)n1" ?
2.24e-08

----------
# TGT: human mGlu2 receptor (Homo sapiens)
# Construct: expressed in transfected cells; host or cells: CHO cells (membrane preparation)
# EXPERIMENTAL_DETAILS: [35S]GTPγS binding assay (mGluR2 negative allosteric modulation)
# Type: biochemical
# MEASUREMENT_CONDITIONS: membranes from CHO cells transfected with human mGlu2 receptor; glutamate 60 μM; pIC50 = −log IC50 (M); read-out: GTPγS - hmGluR2 anGT pIC50 (converted)
READOUT: IC50 (M)
Answer with a number only, understood to be in M.

Below are worked cases with known answers.
{"MOLECULE": "Cc1cc(-c2cnn3c2C(=O)N(c2ccc(C(F)(F)F)c(Cl)c2)C[C@@H]3C)ccn1", "IC50 [M]": "1.78e-09"}
{"MOLECULE": "CC(O)c1cc(-c2cnn3c2C(=O)N(c2ccc(Cl)c(Cl)c2)C[C@@H]3C)ccn1 (some centres unmarked)", "IC50 [M]": "2.95e-07"}
{"MOLECULE": "COc1cc(F)cc(N2C[C@H](C)n3ncc(-c4ccnc(C)c4)c3C2=O)c1", "IC50 [M]": "9.55e-07"}
{"MOLECULE": "Cc1cc(-c2cnn3c2C(=O)N(c2ccc(F)c(F)c2)C[C@@H]3C)ccn1", "IC50 [M]": "1.45e-07"}
{"MOLECULE": "CNc1cc(-c2cnn3c2C(=O)N(c2ccc(C(F)(F)F)cn2)C[C@@H]3C)ccn1", "IC50 [M]": "2.34e-08"}
{"MOLECULE": "C[C@H]1CN(c2ccc(Cl)c(Cl)c2)C(=O)c2c(-c3ccnc(N4CCC4)c3)cnn21", "IC50 [M]": "1.66e-09"}

Could you tell me which IC50 is on file for "C[C@H]1CN(c2ccc(C(F)(F)F)cc2)C(=O)c2c(-c3ccnc(N4CCCC4)c3)cnn21" ?
2.75e-08

Could you tell me which IC50 is on file for "CNc1cc(-c2cnn3c2C(=O)N(c2ccc(C(F)(F)F)c(OC)n2)C[C@@H]3C)ccn1" ?
3.16e-09
